- systemName: NRAS Q61R (Homo sapiens, UniProt P01111+P62937, Q61R)
- Sequence (P01111 whole entry Q61R): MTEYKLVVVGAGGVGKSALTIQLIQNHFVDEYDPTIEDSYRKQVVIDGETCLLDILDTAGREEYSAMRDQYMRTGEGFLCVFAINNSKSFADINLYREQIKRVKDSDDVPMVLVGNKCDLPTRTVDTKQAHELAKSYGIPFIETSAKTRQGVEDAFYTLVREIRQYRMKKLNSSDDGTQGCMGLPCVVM
- Sequence (P62937 whole entry): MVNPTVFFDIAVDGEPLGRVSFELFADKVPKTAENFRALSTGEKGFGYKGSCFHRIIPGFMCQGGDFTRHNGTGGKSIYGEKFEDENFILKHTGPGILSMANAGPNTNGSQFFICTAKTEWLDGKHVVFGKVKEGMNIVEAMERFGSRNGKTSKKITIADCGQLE
- assayOverview: Ras-Raf disruption / FRET / MOA assay (BRAF RBD)
- Type: biochemical
- Excerpt: Disruption of […] Ras-binding Domain (BRAF^RBD) Interaction with K-Ras by Compounds of the Invention (also Called a FRET Assay or an MOA Assay) Note—The following protocol describes a procedure for monitoring disruption of K-Ras G12C (GMP-PNP) binding to BRAF^RBD by a compound of the invention. This protocol may also be executed substituting other Ras proteins or nucleotides, such as K-Ras G12D and K-Ras G13D. […]
pIC50: −log10 of the molar value.
endpointLabel: pIC50

[[record]]
mol = "CCn1c(-c2cccnc2[C@H](C)OC)c2c3cc(ccc31)-c1cc(O)cc(c1)C[C@H](NC(=O)[C@H](C(C)C)N(C)C(=O)CN(C)C(=O)[C@H]1N[C@H]1C(F)(F)F)C(=O)N1CCC[C@H](N1)C(=O)OCC(C)(C)C2"
endpointlabel = "pIC50"
reportedvalue = "6.00 to 7.00"

[[record]]
mol = "CC[C@H]1N[C@H]1C(=O)N(C)CC(=O)N(C)[C@H](C(=O)N[C@H]1Cc2cc(O)cc(c2)-c2ccc3c(c2)c(c(-c2cccnc2[C@H](C)OC)n3CC)CC(C)(C)COC(=O)[C@@H]2CCCN(N2)C1=O)C(C)C"
endpointlabel = "pIC50"
reportedvalue = "6.00 to 7.00"


----------
- systemName: KRAS G12C (Homo sapiens, UniProt P01116+P62937, G12C)
- Sequence (P01116 1-169 isoform P01116-2 G12C): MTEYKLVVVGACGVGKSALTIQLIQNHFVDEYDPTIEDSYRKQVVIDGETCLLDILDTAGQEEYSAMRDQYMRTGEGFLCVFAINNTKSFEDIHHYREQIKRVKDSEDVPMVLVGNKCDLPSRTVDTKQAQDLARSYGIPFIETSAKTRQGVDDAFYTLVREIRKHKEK
- Sequence (P62937 whole entry): as the sequence (P62937 whole entry) above
- assayOverview: Disruption of BRAF RBD interaction with Ras (FRET / MOA assay, with Cyclophilin A)
- Format: biochemical
- conditionParameters: read-out: KRAS G12C FRET data, IC50
pIC50: −log10 of the molar value.
Recorded pIC50 by entry
endpointLabel: pIC50

[[record]]
compound = "CCn1c(-c2cccnc2[C@H](C)OC)c2c3cc(ccc31)-c1cc(O)cc(c1)C[C@H](NC(=O)C1CCCC1C(F)F)C(=O)N1CCC[C@H](N1)C(=O)OCC(C)(C)C2 (some centres unmarked)"
reportedvalue = "6.00 to 7.00"

[[record]]
compound = "CCn1c(-c2cccnc2[C@H](C)OC)c2c3cc(ccc31)-c1csc(n1)C[C@H](NC(=O)[C@H](C(C)C)N(C)C(=O)N1CCC[C@@H](N(C)C)C1)C(=O)N1CCC[C@H](N1)C(=O)OCC(C)(C)C2 (atropisomer, axis not shown)"
reportedvalue = "6.00 to 7.00"


----------
- systemName: KRAS G12S (Homo sapiens, UniProt P01116+P62937, G12S)
- Sequence (P01116 1-169 isoform P01116-2 G12S limits assumed): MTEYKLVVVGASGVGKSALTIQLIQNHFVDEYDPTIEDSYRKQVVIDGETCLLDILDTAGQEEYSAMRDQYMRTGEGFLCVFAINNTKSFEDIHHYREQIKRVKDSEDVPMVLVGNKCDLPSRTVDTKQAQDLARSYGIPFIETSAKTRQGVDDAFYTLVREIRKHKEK
- Sequence (P62937 whole entry): as the sequence (P62937 whole entry) above
- assayOverview: Ras-Raf disruption / FRET / MOA assay (BRAF RBD)
- Type: biochemical
- conditionParameters: KRAS G12S FRET data IC50, Ras-Raf disruption, with Cyclophilin A
pIC50: −log10 of the molar value.
endpointLabel: pIC50

[[record]]
compound = "CCn1c(-c2cccnc2[C@H](C)OC)c2c3cc(ccc31)-c1cc(O)cc(c1)C[C@H](NC(=O)[C@H](C(C)C)N(C)C(=O)CN(C)C(=O)[C@H]1CN1)C(=O)N1CCC[C@H](N1)C(=O)OCC(C)(C)C2 (single isomer, unassigned) [Example 42B]"
endpointlabel = "pIC50"
reportedvalue = "5.00 to 6.00"

[[record]]
compound = "CCn1c(-c2cccnc2[C@H](C)OC)c2c3cc(ccc31)-c1cc(O)cc(c1)C[C@H](NC(=O)[C@H](C(C)C)N(C)C(=O)CN(C)C(=O)[C@@H]1CN1CC1(C)COC1)C(=O)N1CCC[C@H](N1)C(=O)OCC(C)(C)C2 (stereo partly shown) [Example 280]"
endpointlabel = "pIC50"
reportedvalue = "7.00 to 8.00"

[[record]]
compound = "CCn1c(-c2cccnc2[C@H](C)OC)c2c3cc(ccc31)-c1cc(O)cc(c1)C[C@H](NC(=O)[C@H](C(C)C)N(C)C(=O)CN(C)C(=O)[C@H]1CN1CCOC)C(=O)N1CCC[C@H](N1)C(=O)OCC(C)(C)C2 (stereo partly shown) [Example 159]"
endpointlabel = "pIC50"
reportedvalue = "7.00 to 8.00"

[[record]]
compound = "CCn1c(-c2cccnc2[C@H](C)OC)c2c3cc(ccc31)-c1cc(O)cc(c1)C[C@H](NC(=O)[C@H](C(C)C)N1CC[C@@H](NC(=O)[C@H]3CN3)C1=O)C(=O)N1CCC[C@H](N1)C(=O)OCC(C)(C)C2 [Example 130]"
endpointlabel = "pIC50"
reportedvalue = "7.00 to 8.00"

